For each record, write down the corresponding pIC50.
system: HXB2 virus; assay: microbe, parasite or virus in culture; type: cell-based, HIV; details: Human immunodeficiency virus 1, HXB2, HeLaP4-2, read-out: antiviral IC50 (SCIA-B)
pIC50: −log10 of the molar value.

These solved cases illustrate the format of a correct answer.
Query: Endpoint output: pIC50 of O=c1cc(-c2ccc(NCCN3CCOCC3)nc2)c2cccnc2n1O [Example 200] . Value?
Reply: > 4.00

Query: Check Nc1cc(=O)n(O)c2ncccc12 [Example 99] too.
Reply: > 4.00

Query: Check O=c1cc(Nc2ccc(-c3ccccc3)cc2)c2cccnc2n1O [Example 106] too.
Reply: > 4.00

Query: Check NC(=O)c1cccc(-c2cc(=O)n(O)c3ncccc23)c1 [Example 196] too.
Reply: > 4.00

Query: Check CCOC(=O)c1c(O)c2cc(-c3cc(C)cc(C)c3)cnc2n(O)c1=O [Example 65] too.
Reply: > 4.00

Each compound below has a recorded value; state its pIC50.
1. O=c1cc(Nc2ccccc2)c2cccnc2n1O [Example 103]
2. CNC(=O)c1cccc(-c2cc(=O)n(O)c3ncccc23)c1 [Example 180]
3. O=C(NCc1ccccc1)c1cnc2c(c1)c(O)c(C(=O)NCc1ccccc1)c(=O)n2O [Example 87]
4. CCOC(=O)c1ccnc2c1c(-c1ccc(-c3ccc(CN)cc3)cc1)cc(=O)n2O [Example 241]
5. CN1CCN(c2cc(=O)n(O)c3ncccc23)CC1=O [Example 148]

Reply:
> 4.00
> 4.00
> 4.00
> 4.00
> 4.00

Origin of values: patent US20100056516A1
